compounds and their reported IC50 growth inhibition
# Tested on: Saccharomyces cerevisiae ABC16-Green Monster
# Conditions used: 18 h; 30 °C; YPD

Below, 3 compounds whose answers are already recorded.
>>> result("CCC(C)C1OC2(CCC1C)CC1CC(CC=C(C)C(OC3CC(OC)C(OC4CC(OC)C(O)C(C)O4)C(C)O3)C(C)C=CC=C3COC4C(O)C(C)=CC(C(=O)O1)C34O)O2 (stereo not given) [Ivermectin]")
"> 75 µM"
>>> result("CON=C(C(=O)OC)c1ccccc1CON=C(C)c1cccc(C(F)(F)F)c1 [Trifloxystrobin]")
"> 75 µM"
>>> result("CC1CC(C)C(=O)C(C(O)CC2CC(=O)NC(=O)C2)C1 (stereo not given) [Cycloheximide]")
"0.0378 µM"

For the next question, use this compound.
According to the records, this compound O=C(Nc1ccc(N2CCNCC2)cc1)c1ccn2ncc(-c3cccc(Cl)c3)c2n1 displays IC50 growth inhibition of 8 µM

---

# reported IC50 growth inhibition; entries follow
# Test system: Saccharomyces cerevisiae ABC16-Green Monster
# Conditions used: 18 h; 30 °C; YPD
Kindly provide the numeric value in µM only, without the unit symbol.

Answered examples (6):
>>> result("OC(Cn1cncn1)(Cn1cncn1)c1ccc(F)cc1F")
3.14
>>> result("CCn1nc(-c2ccc(C(=O)OC)cc2)nc2c(=O)n(C)c(=O)nc1-2")
0.601
>>> result("COC1CC2CCC(C)C(O)(O2)C(=O)C(=O)N2CCCCC2C(=O)OC(C(C)CC2CCC(OCCO)C(OC)C2)CC(=O)C(C)C=C(C)C(O)C(OC)C(=O)C(C)CC(C)C=CC=CC=C1C (configuration not stated)")
0.0415
>>> result("Cc1cc(C(=O)Cn2c(CO)nc3ccccc32)c(C)n1-c1ccccc1")
62.4
>>> result("Cc1nn(C)cc1C(C)Nc1nncc(-c2ccc(C(F)(F)F)cc2)n1 (configuration not stated)")
44.9
>>> result("CC[P](CC)(CC)=[Au][S][C@H]1O[C@@H](COC(C)=O)[C@H](OC(C)=O)[C@@H](OC(C)=O)[C@@H]1OC(C)=O")
28.2

// sample CCN(CC)C(=S)SSC(=S)N(CC)CC , its IC50 growth inhibition was 52.9

For record COC(=O)c1ccc(C(=O)OC)c(N2C(=O)C=CC2=O)c1 the listed IC50 growth inhibition is 67.7

CN[C@H]1C[C@@H](N)[C@H](O)[C@@H](O[C@@H]2O[C@H](CO)[C@H](O)[C@@H]3O[C@@]4(O[C@H]23)O[C@H]([C@H](N)CO)[C@H](O)[C@H](O)[C@H]4O)[C@@H]1O has a reported IC50 growth inhibition of 13.8

Reported IC50 growth inhibition ( COc1ccc(Nc2nc(Nc3ccc(C)cc3)nc(Sc3nc4ccccc4[nH]3)n2)cc1 ) = 2.31

Note to self: IC50 growth inhibition recorded for COCCNCC(O)Cn1c2ccc(Cl)cc2c2cc(Cl)ccc21 (configuration not stated) was 11

Value of IC50 growth inhibition reported for the compound COC(=O)C1=C(C)NC(C)=C(C(=O)OC(C)C)C1c1cccc2nonc12 (configuration not stated) is 65.4

The compound listed as O=C(Nc1ccc(Cl)c(Cl)c1)Nc1ccc(Cl)c(Cl)c1 has a reported IC50 growth inhibition of 0.32

The measured IC50 growth inhibition associated with COc1ccc(-c2cnc3ccc(N4CCCC4)nn23)cc1OC reads 68.5
